protocol notes: NCI Yeast Anticancer Drug Screen. Data for the mlh1 rad18 strain (AID 175)
study conditions: S. cerevisiae mlh1 rad18 strain growth inhibition; at 50.0 µM; hits give high values
The panel holds about 79,000 compounds, 15% with a hit somewhere; the sample as a whole holds those more often.

compound: O=C(Nc1ccc(Cl)cc1)Nc1nnc(-c2ccccc2Br)o1
growth inhibition [%]: 8.3
//
compound: O=C(O)C(NCCCNC(C(=O)O)c1ccccc1)c1ccccc1 (configuration not stated)
growth inhibition [%]: 19.1
//
compound: CN(C)CSC(=S)NCCNC(=S)SCN(C)C
growth inhibition [%]: -4.1
//
compound: NC(=S)N/N=C\CC(O)(C(F)(F)F)C(F)(F)F
growth inhibition [%]: -2.3
//
compound: OC(c1cc(-c2ccccc2)nc2c1ccc1ccccc12)C1CCCCN1 (configuration not stated)
growth inhibition [%]: 26.4
//
compound: CCOC(=O)c1nc(-c2ccccc2)c(-c2ccccc2)c(-c2ccccc2)c1C
growth inhibition [%]: -4.85
//
compound: CCCC(=O)c1ccccc1
growth inhibition [%]: 21.9
//
compound: Cn1cnc(N2CCCC2)c(C#N)c1=S
growth inhibition [%]: 0.25
//
compound: C/C(=N\Nc1ccc([N+](=O)[O-])cc1[N+](=O)[O-])C1(C)CC=CCC1C (configuration not stated)
growth inhibition [%]: -1.45
//
compound: O=C(O)c1cccc2c1C(=O)c1c(O)cccc1C2=O
growth inhibition [%]: 30.2
//
compound: CC1CN=C(N(C(=O)Nc2ccc(F)c(Cl)c2)c2ccccc2)S1 (configuration not stated)
growth inhibition [%]: -29.9
//
compound: Cc1[nH]n(-c2ccccc2)c(=O)c1N=Nc1cccc(C(F)(F)F)c1
growth inhibition [%]: 15.7

* * *

protocol notes: NCI Yeast Anticancer Drug Screen. Data for the rad50 strain (AID 155);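 note: 0% = growth of vehicle-only cultures of the same strain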
study conditions: S. cerevisiae rad50 strain growth inhibition; at 50.0 µM; hits give high values
The panel holds about 79,000 compounds, 15% with a hit somewhere; the sample as a whole holds those more often.

compound: C[CH2][Sn]([CH2]C)([O]C(=O)c1ccc(OC)c(OC)c1OC)[O]C(=O)c1ccc(OC)c(OC)c1OC
growth inhibition, %: 41.5

compound: COC(=O)n1sc(SC)nc1=N
growth inhibition, %: 3.75

compound: CC(=O)CCn1c(=S)sc2ccccc21
growth inhibition, %: -6.3

compound: Cc1ccc(C)c(NC(=O)Nc2cccc(Cl)c2)c1
growth inhibition, %: -6.1

compound: S=c1nc[nH]c2nc(Cl)[nH]c12
growth inhibition, %: -5.45

compound: Cc1cc(=O)n2c(c1)[nH]c1ccccc12
growth inhibition, %: 3.25

compound: CC(=O)OCCn1c(=O)sc2ccccc21
growth inhibition, %: 3.1

compound: C[n+]1cc(Br)c2ccccc2c1
growth inhibition, %: 4.05

compound: [Cl][Bi]([O]c1ccccn1)[O]c1ccccn1
growth inhibition, %: 9.9

compound: Cc1ccc(NC(=O)C(c2ccccc2)c2ccccc2)cc1
growth inhibition, %: 0.15

compound: NC(CC(=O)Nc1ccc(Cl)cc1)=Nc1ccccc1
growth inhibition, %: -28.6

compound: CCCCNC(=O)NC1CC(OC2CC(O)(C(C)=O)Cc3c(O)c4c(c(O)c32)C(=O)c2c(OC)cccc2C4=O)OC(C)C1O (configuration not stated)
growth inhibition, %: 30.2

* * *

protocol notes: NCI Yeast Anticancer Drug Screen. Data for the bub3 strain (AID 167)
study conditions: S. cerevisiae bub3 mutant strain, at 50.0 µM
The panel holds about 79,000 compounds, 15% with a hit somewhere; the sample as a whole holds those more often. Calls of active or inactive are those of the source. Cut-off read from the data, not from the text of the source: active = growth inhibition above about 70%; inactive = the rest.
Outcomes: active, inactive

compound: C[C@]12CCC(=O)O[C@@H]1CC[C@@H]1[C@@H]2CC[C@]2(C)[C@@H](O)CC[C@@H]12
class label: inactive
--
compound: CC1(C)Oc2ccc(NC(=O)CCC(N)C(=O)O)cc2O1 (stereo not given)
class label: inactive
--
compound: CCC1=C[C@H]2CN(CCc3c([nH]c4ccccc34)[C@@](C(=O)OC)(c3cc4c(cc3OC)N(C)[C@H]3C(C(=O)OC)=C[C@]5(CC)C=CCN6CC[C@]43[C@@H]65)C2)C1
class label: inactive
--
compound: CCCCCCCCCCCCCCCC(=O)N(CCCC)CCCC
class label: inactive
--
compound: CN=Cc1ccccc1O.CN=Cc1ccccc1O.[Cu+2]
class label: inactive
--
compound: O=C1Oc2cc3c(c4cccc1c24)O[C@H](c1ccccc1)[C@@H](c1ccccc1)[C@@H]3c1ccc(Cl)cc1
class label: inactive
--
compound: O=S(=O)(O)c1ccc[n+]([O-])c1
class label: inactive
--
compound: CCC(CC)C(=O)NC
class label: inactive
--
compound: CCc1nc(N)nc(-c2nc(N)nc(CC)c2C)c1C
class label: inactive
--
compound: O=S1(=O)CC(Cl)C(I)C1 (stereo not given)
class label: active
